Parameter 'readout' = Ki; parameter 'system' = 5-hydroxytryptamine receptor 1A (Rattus norvegicus).
Sequence (P19327 whole entry): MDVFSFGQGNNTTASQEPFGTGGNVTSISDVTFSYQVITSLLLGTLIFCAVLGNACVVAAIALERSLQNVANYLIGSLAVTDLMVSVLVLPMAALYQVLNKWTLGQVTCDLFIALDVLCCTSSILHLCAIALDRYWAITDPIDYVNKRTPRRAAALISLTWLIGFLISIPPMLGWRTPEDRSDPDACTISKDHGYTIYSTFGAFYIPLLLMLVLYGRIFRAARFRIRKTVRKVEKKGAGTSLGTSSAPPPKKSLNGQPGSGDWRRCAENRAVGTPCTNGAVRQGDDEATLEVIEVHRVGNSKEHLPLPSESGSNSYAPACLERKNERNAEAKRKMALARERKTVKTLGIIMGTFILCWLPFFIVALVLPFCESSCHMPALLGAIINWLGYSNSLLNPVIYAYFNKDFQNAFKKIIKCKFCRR

| compound | Ki (nM) |
| --- | --- |
| CC1Oc2ccccc2OC1COCCCN1CCC(c2nc3ccccc3s2)CC1 (stereo not drawn) | 103 |
| c1ccc(C2Oc3ccccc3OC2COCCCCCN2CCC(c3nc4ccccc4o3)CC2)cc1 (stereo not drawn) | 106 |
| O=C(NCCN1CCC(c2nc3ccccc3o2)CC1)C1COc2ccccc2O1 (stereo not drawn) | 76 |
| O=C(NCCN1CCC(c2nc3ccccc3s2)CC1)C1COc2ccccc2O1 (stereo not drawn) | 94 |
| c1ccc(C2Oc3ccccc3OC2COCCCCCN2CCC(c3nc4ccccc4s3)CC2)cc1 (stereo not drawn) | 131 |
| O=C(NCCCN1CCC(c2nc3ccccc3s2)CC1)C1COc2ccccc2O1 (stereo not drawn) | 85 |
| c1ccc(C2Oc3ccccc3OC2COCCCN2CCC(c3nc4ccccc4s3)CC2)cc1 (stereo not drawn) | 134 |
| c1ccc(C2Oc3ccccc3OC2COCCCN2CCC(c3nc4ccccc4o3)CC2)cc1 (stereo not drawn) | 51 |

###

This section presents compounds with their documented pKi values.
- test target: 5-hydroxytryptamine receptor 2A (Rattus norvegicus, UniProt P14842)
- Sequence (P14842 whole entry): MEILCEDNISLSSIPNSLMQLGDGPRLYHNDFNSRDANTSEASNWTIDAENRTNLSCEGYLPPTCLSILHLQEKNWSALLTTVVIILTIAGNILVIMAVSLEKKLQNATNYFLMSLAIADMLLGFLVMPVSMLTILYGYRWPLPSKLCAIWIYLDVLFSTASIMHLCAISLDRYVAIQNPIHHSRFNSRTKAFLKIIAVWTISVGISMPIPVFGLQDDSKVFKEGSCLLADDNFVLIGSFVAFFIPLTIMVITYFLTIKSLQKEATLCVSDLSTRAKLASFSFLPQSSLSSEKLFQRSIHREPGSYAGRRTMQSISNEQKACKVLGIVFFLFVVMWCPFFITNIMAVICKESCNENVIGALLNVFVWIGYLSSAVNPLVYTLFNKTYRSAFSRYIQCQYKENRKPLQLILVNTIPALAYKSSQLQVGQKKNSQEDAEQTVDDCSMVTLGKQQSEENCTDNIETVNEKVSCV
pKi: −log10 of the molar value.

| compound | pKi |
| --- | --- |
| CC1Oc2ccccc2OC1COCCCN1CCC(c2nc3ccccc3s2)CC1 (stereo unspecified) | 6.88 |
| c1ccc(C2Oc3ccccc3OC2COCCCCN2CCC(c3nc4ccccc4s3)CC2)cc1 (stereo unspecified) | 7.62 |
| c1ccc2c(c1)OCC(COCCCN1CCC(c3nc4ccccc4s3)CC1)O2 (stereo unspecified) | 7.55 |
| O=C(NCCCN1CCC(c2nc3ccccc3s2)CC1)C1COc2ccccc2O1 (stereo unspecified) | 7.05 |
| c1ccc(C2Oc3ccccc3OC2COCCCCCN2CCC(c3nc4ccccc4o3)CC2)cc1 (stereo unspecified) | 9.13 |
| CC1Oc2ccccc2OC1COCCCN1CCC(c2nc3ccccc3o2)CC1 (stereo unspecified) | 8.09 |
